Measured values drawn from PubChem BioAssay (NCATS) for this set.

assay.text: Quantitative High-Throughput drug screen in 47 multiple myeloma cell lines against the NCATS MIPE library collection: OCIMY5_PLB cell viability assay (AID 1918988); further: nearly all actives have a fitted effect of over 65% in size
condition.summary: OCI-MY5 myeloma viability, ATP luminescence, 48 h; series mostly up to 45.8 µM
Records with an inconclusive call do not appear. Calls of active or inactive are those of the source. The call rests on the fitted dose curve; in most records, active means well fitted cell-killing curve with a large enough effect; inconclusive means small, poorly fitted or top-dose-only effect, or effect the other way; inactive means no such curve, though single readings can be large or run the other way.
Use one of these outcomes when replying: active, inactive

Here are 3 molecules together with their reported answers.
CC(=O)[C@]1(O)Cc2c(O)c3c(c(O)c2[C@@H](O[C@H]2C[C@H](N)[C@@H](O)[C@H](C)O2)C1)C(=O)c1ccccc1C3=O
active
Cc1cnc(NC(=O)Nc2cc(Br)c(C)cc2OC[C@@H]2CNCCO2)cn1
active
CON=C(C(=O)N[C@@H]1C(=O)N2C(C(=O)O)=C(Cn3ccc(=N)n3CCO)CS[C@H]12)c1csc(N)n1
inactive

Exercise: State the result this test recorded for C[C@H](CCC(=O)O)[C@H]1CCC2C3C[C@H](O)[C@@H]4C[C@H](O)CC[C@]4(C)C3CC[C@@]21C (some centres not stated) .
Solution: inactive

Exercise: Write down the call the test reported for this molecule. Item: C[C@]12CC[C@@H]3c4ccc(O)cc4CC[C@H]3[C@H]1CC[C@H]2O
Solution: active

Exercise: Kindly provide the recorded test outcome for the following molecule: CN(C)CC(=O)N1CCC(c2ccc(NC(=O)c3ncc(C#N)[nH]3)c(C3=CCCCC3)c2)CC1
Solution: active

Exercise: Recorded test call requested for FC(F)c1nc2ccccc2n1-c1nc(N2CCOCC2)nc(N2CCOCC2)n1
Solution: active
